Assay: logP by HPLC on reversed-phase column (C 18), EEC Directive 79/B31 Annex V.A8, methods A and B
Type: physicochemical
Conditions: reversed-phase HPLC column (C 18), HPLC reversed-phase C 18, method A: 43° C., 0.1% aqueous phosphoric acid, acetonitrile, linear gradient 10% to 90% acetonitrile
Quantity Measured: chromatographic logP

Examples with their reported chromatographic logP follow.
INSERT INTO results (smiles_str, quantity_measured, measured_value) VALUES
  ('Cc1ncc(C(=O)N(C2CC2)S(=O)(=O)c2ccc(O)cc2O)s1', 'chromatographic logP', 2.91),
  ('COc1ccccc1S(=O)(=O)N(C(=O)c1c(C)nn(C)c1F)C1CC1', 'chromatographic logP', 2.06);

1: Cc1nn(C)c(F)c1C(=O)N(C1CC1)S(=O)(=O)c1c(O)cccc1O
2: CCOC(=O)c1[nH]c(C)c(C(=O)N(C2CC2)S(=O)(=O)c2ccc(O)c(C(F)(F)F)c2)c1C
Please indicate which entry, 1 or 2 , has the lower recorded chromatographic logP value. Answer with the label corresponding to your selection.
1
(1: 2.52, 2: 4.08)

---

Assay: logP by HPLC on reversed-phase column (C 18), EEC Directive 79/B31 Annex V.A8, methods A and B
Assay type: physicochemical
Details: reversed-phase HPLC column (C 18), LogP method A: HPLC reversed-phase C 18, 43° C., 0.1% aqueous phosphoric acid / acetonitrile, linear gradient 10% to 90% acetonitrile
Quantity Measured: chromatographic logP

Examples with their reported chromatographic logP follow.
INSERT INTO measurements (compound, quantity_measured, measured_value) VALUES
  ('Cc1nn(C)c(C)c1C(=O)N(C1CC1)S(=O)(=O)c1ccc(O)cc1O [Compound 413]', 'chromatographic logP', 2.8),
  ('CCc1onc(C(C)C)c1C(=O)N(C1CC1)S(=O)(=O)c1ccc(O)c(C(F)(F)F)c1 [Compound 594]', 'chromatographic logP', 4.82),
  ('O=C(c1cccnc1Cl)N(C1CC1)S(=O)(=O)c1cccc(O)c1 [Compound 643]', 'chromatographic logP', 2.91);

a: O=C(c1cccnc1)N(C1CC1)S(=O)(=O)c1ccc(C(F)(F)F)cc1 [Compound 637]
b: CCc1onc(C(C)C)c1C(=O)N(C1CC1)S(=O)(=O)c1ccc(C(C)(C)C)cc1 [Compound 597]
Select the item with the higher value of chromatographic logP from the options a and b listed. Answer with the label corresponding to your selection.
b
(b: 4.98, a: 2.74)

---

Test: logP by HPLC on reversed-phase column (C 18), EEC Directive 79/B31 Annex V.A8, methods A and B
Format: physicochemical
Conditions: reversed-phase HPLC column (C 18), HPLC reversed-phase C 18, method B: 40° C., 0.1% aqueous formic acid and acetonitrile, linear gradient 10% to 90% acetonitrile
Procedure: Calibration was carried out using unbranched alkan-2-ones (having 3 to 16 carbon atoms) with known logP values (determination of the logP values by the retention times using linear interpolation between two successive alkanones).
Quantity Measured: chromatographic logP

INSERT INTO assay_data (smiles_str, quantity_measured, measured_value) VALUES
  ('CCc1nn(C)c(F)c1C(=O)N(C1CC1)S(=O)(=O)c1ccc(Oc2ccc(O)cc2)cc1', 'chromatographic logP', 4.2),
  ('CCCCc1ccc(S(=O)(=O)N(C(=O)c2c(C(F)(F)F)nn(C)c2F)C2CC2)cc1', 'chromatographic logP', 4.3),
  ('CCCCc1ccc(S(=O)(=O)N(C(=O)c2c(CC)nn(C)c2F)C2CC2)cc1', 'chromatographic logP', 4.2),
  ('COc1nn(C)c(O)c1C(=O)N(C1CC1)S(=O)(=O)c1ccc(O)c(O)c1O', 'chromatographic logP', 3.8),
  ('CCCOc1nn(C)cc1C(=O)N(C1CC1)S(=O)(=O)c1ccc(Oc2ccc(OC)c(OC)c2)cc1Br', 'chromatographic logP', 3.6);

I: CCc1nn(C)c(F)c1C(=O)N(C1CC1)S(=O)(=O)c1c(O)cc(C(F)(F)F)cc1O
II: CCc1nn(C)c(F)c1C(=O)N(C1CC1)S(=O)(=O)c1c(C)nn(C)c1O
Select the item with the higher value of chromatographic logP from the options I and II listed. Answer with the label corresponding to your selection.
I
